# System: 616215-338-R-J1-PDC tumor spheroids, viability;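 note: spheroids exposed to agents for 7 days before readout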
# Procedure Details: Anticancer human tumor 616215-338-R-J1-PDC patient-derived colon adenocarcinoma cell line growth inhibition [GQUAD]
# Measurement Parameters: second compound 10 µM; first compound 0.316 µM; hits give low values; spheroids with HUVEC and MSC
Classify: Condition met when viability, T/C is strictly less than 90%; Condition not met when viability, T/C is not.

*Q* Criterion: viability, T/C strictly below 90%. Is it met by COc1ccc([C@@H](O)c2cc(-c3ncnc4cc(N5CCOCC5)ccc34)c(F)cc2Cl)nn1 + Cc1[nH]c2ccc(F)cc2c1-c1nc2c3cccnc3c3ncccc3c2[nH]1 ?
*A* Condition not met

*Q* Criterion: viability, T/C strictly below 90%. Is it met by CCCS(=O)(=O)Nc1ccc(F)c(C(=O)c2c[nH]c3ncc(-c4ccc(Cl)cc4)cc23)c1F + CN(C)c1ccc(Nc2c3ccc(NC(=O)CCN4CCCC4)cc3nc3cc(NC(=O)CCN4CCCC4)ccc23)cc1 ?
*A* Condition not met

*Q* Criterion: viability, T/C strictly below 90%. Is it met by C#Cc1c(F)ccc2cc(O)cc(-c3ncc4c(N5CC6CCC(C5)N6)nc(OCC56CCCN5CC(F)C6)nc4c3F)c12 (stereo not given) + CN(C)c1ccc(Nc2c3ccc(NC(=O)CCN4CCCC4)cc3nc3cc(NC(=O)CCN4CCCC4)ccc23)cc1 ?
*A* Condition not met

*Q* Criterion: viability, T/C strictly below 90%. Is it met by COc1cccc2c1C(=O)c1c(O)c3c(c(O)c1C2=O)CC(O)(C(=O)CO)CC3OC1CC(N)C(O)C(C)O1 (stereo not given) + Cc1[nH]c2ccc(F)cc2c1-c1nc2c3cccnc3c3ncccc3c2[nH]1 ?
*A* Condition met

*Q* Criterion: viability, T/C strictly below 90%. Is it met by CC1COCCN1c1cc(C2(O)CC3CCC(C2)O3)c2cnn(-c3ccn[nH]3)c2n1 (stereo not given) + Cc1cnc(CNC(=O)c2c(=O)c3ccc(N4CCCN(C)CC4)nc3n3c2sc2ccccc23)cn1 ?
*A* Condition met
